molecules and their reported Papp
- assay_protocol: Caco-2 permeability assay (CacoReady kit)
- Assay type: in vitro ADME
- condition: human
- Experimental: Permeability coefficients (Papp values) were obtained from Caco-2 barrier studies predicting oral/intestinal bioavailability of the tested compounds. The assays were performed by using CacoReady™ ready-to-use kits from ReadyCell according to the manufacturers protocol.

QUERY: For the molecule CCOC(=O)/C=C/CC[C@H](NC(=O)c1oc2ccccc2c1C)C(=O)Nc1cccn(CC(=O)NC2C3CC4CC(C3)CC2C4)c1=O (stereo partly drawn) , give its reported Papp.
RESULT: 1 to 10 ×10⁻⁶ cm/s

QUERY: Give the measured Papp for Cc1cn2c(C(=O)N[C@@H](CC/C=C/C(=O)NC(C)C)C(=O)Nc3cccn(CC(=O)NC45CC(C4)C5)c3=O)csc2n1
RESULT: 1 to 10 ×10⁻⁶ cm/s

Turning now to a further record.
QUERY: Please give measured Papp of the following entry: COC(=O)/C=C/CC[C@H](NC(=O)c1oc2ccccc2c1C)C(=O)Nc1cccn(CC(=O)NC23CC4CC(CC(Cl)(C4)C2)C3)c1=O
RESULT: 1 to 10 ×10⁻⁶ cm/s

----------
- assay_protocol: Caco-2 permeability assay (CacoReady kit)
- Format: in vitro ADME
- condition: human
experimental_endpoint: Papp

Worked cases, answers included:
QUERY: Supply measured Papp of COC(=O)/C=C/CC[C@H](NC(=O)c1cc(C(=O)OC)cc([N+](=O)[O-])c1)C(=O)Nc1cccn(CC(=O)NC2C3CC4CC(C3)CC2C4)c1=O (stereo partly shown) in your reply.
RESULT: < 10 nm/s

QUERY: Determine from records and report Papp for COC(=O)/C=C/CC[C@H](NC(=O)c1oc2ccccc2c1C)C(=O)Nc1cccn(CC(=O)NC23CC4CC(C2)C(F)(F)C(C4)C3)c1=O
RESULT: 10 to 100 nm/s

QUERY: Indicate its recorded Papp; the molecule in question is COC(=O)/C=C/CC[C@H](NC(=O)c1oc2ccccc2c1C)C(=O)Nc1cccn(CC(=O)NC2(C(=O)OC)C3CC4CC(C3)CC2C4)c1=O (stereo partly shown)
RESULT: < 10 nm/s

New cases:
QUERY: Indicate the recorded Papp value for this molecule: COC(=O)/C=C/CC[C@H](NC(=O)c1cnnn1C)C(=O)Nc1cccn(CC(=O)NC23CC4CC(C)(CC(C)(C4)C2)C3)c1=O
RESULT: < 10 nm/s

QUERY: State its Papp for this molecule: COC(=O)/C=C/CC[C@H](NC(=O)c1oc2ccccc2c1C)C(=O)Nc1cccn(CC(=O)N[C@@H]2C[C@@H]3CC[C@H]2C3)c1=O
RESULT: 10 to 100 nm/s

QUERY: Dear colleague, please send me the reported Papp for COC(=O)/C=C/CC[C@H](NC(=O)c1oc2ccccc2c1C)C(=O)Nc1cccn(CC(=O)NC23CC4CC(CC(C4)C2)C3)c1=O when you can.
RESULT: 10 to 100 nm/s

----------
- assay_protocol: Log D shake flask method (octanol / PBS pH 7.4, HPLC)
- Assay type: physicochemical
- condition: octanol/phosphate-buffered saline (PBS); octanol / PBS pH 7.4, shake flask
Each entry below carries its reported logD.

Some molecules with known logD results, for comparison:
QUERY: Complete the entry with logD for COC(=O)/C=C/CC[C@H](NC(=O)c1oc2ccccc2c1C)C(=O)Nc1cccn(CC(=O)NC23CC4CC(CC(O)(C4)C2)C3)c1=O [III-50]
RESULT: 1 to 3

QUERY: Report measured logD; entry is COC(=O)/C=C/CC[C@H](NC(=O)[C@H]1COCCN1)C(=O)Nc1cccn(CC(=O)NC2C3CC4CC(C3)CC2C4)c1=O (stereo partly drawn) [III-31]
RESULT: 1 to 3

QUERY: For CCOC(=O)/C=C/CC[C@H](NC(=O)c1cncn1C)C(=O)Nc1cccn(CC(=O)NC2C3CC4CC(C3)CC2C4)c1=O (stereo partly drawn) [III-99] , write its logD.
RESULT: 3 to 5

Further cases:
QUERY: Give reported logD value for O=C(/C=C/CC[C@H](NC(=O)c1cc2ccccc2nn1)C(=O)Nc1cccn(CC(=O)NC23CC(C2)C3)c1=O)NC1CC1 [III-145]
RESULT: < 1

QUERY: State its logD: COC(=O)/C=C/CC[C@H](NC(=O)c1cc2ccc(N(C)C)cc2o1)C(=O)Nc1cccn(CC(=O)NC23CC(C2)C3)c1=O [III-161]
RESULT: 1 to 3

QUERY: For the molecule Cn1cncc1C(=O)N[C@@H](CC/C=C/S(C)(=O)=O)C(=O)Nc1cccn(CC(=O)NC2C3CC4CC(C3)CC2C4)c1=O (stereo partly drawn) [III-100] , report logD.
RESULT: 1 to 3
